The reader will find reported melting point values listed item by item below.

Example entries and their recorded answers appear below.
[
  {
    "compound": "CSc1ccc(-c2coc3ccc(C(=O)NN)nc23)cc1",
    "result": "240 to 241 °C"
  },
  {
    "compound": "CC1(C)CC(=C(c2ccc(O)cc2)c2ccc(OCCCC(=O)O)cc2)CC(C)(C)C1",
    "result": "203 to 204 °C"
  },
  {
    "compound": "COc1ccc(OCC(=O)c2ccccc2)c([N+](=O)[O-])c1",
    "result": "88 to 90 °C"
  },
  {
    "compound": "CN1CCC(c2c[nH]c(-c3ccc(F)cc3)c2-c2ccncc2)=CC1Cc1ccccc1 (stereo not drawn)",
    "result": "198 to 200 °C"
  },
  {
    "compound": "Nc1nc(Nc2ccccc2)sc1C(=O)c1cccnc1",
    "result": "227 to 228 °C"
  }
]

Form field melting point, entry CC#CCOc1ccc(S(=O)(=O)NC2(C(=O)NO)CCCC2)cc1 : 66 to 68 °C

Form field melting point, entry O=C(N[C@H]1CCN(CCc2ccc(F)cc2)C1)n1c2ccccc2c2ccccc21 : 107 to 108 °C

====

The reader will find reported melting point values listed item by item below.

[
  {
    "chemical.smiles": "Cc1nc2c(N)nc3ccccc3c2n1CCOCCN",
    "melting point": "155 to 157 °C"
  },
  {
    "chemical.smiles": "O=C1CCN(C(=O)c2ccc(Cl)cc2Cl)c2c(Cl)cccc21",
    "melting point": "157 to 159 °C"
  },
  {
    "chemical.smiles": "CC(C)Cn1c(=O)c(-c2c(Cl)cccc2Cl)cc2cnc(N)nc21",
    "melting point": "193 to 195 °C"
  },
  {
    "chemical.smiles": "COC(=O)CNC(=O)c1ccc(-c2ccccc2)cc1",
    "melting point": "127 to 128 °C"
  }
]

Field: next compound
Form field melting point, entry O=C(O)c1ccccc1-n1nc(-c2ccccc2O)nc1-c1ccccc1O : 132 to 138 °C

====

The reader will find reported melting point values listed item by item below.

Example entries and their recorded answers appear below.
[
  {
    "chemical.smiles": "COc1ccc(C=CN(C)C)c([N+](=O)[O-])c1[N+](=O)[O-]",
    "melting point": "100 to 131 °C"
  },
  {
    "chemical.smiles": "O=C1CC(c2cccc3c2OCO3)=Nc2ccc(N3CCCC3)cc21",
    "melting point": "330 to 332 °C"
  },
  {
    "chemical.smiles": "COc1ccc(CN(C)CCCc2ccc(NC(=O)c3cccc4c(=O)c5cc(F)ccc5sc34)cc2)cc1OC",
    "melting point": "160 °C"
  },
  {
    "chemical.smiles": "CC(C)NC(=O)CCC(=O)c1ccccc1",
    "melting point": "118 to 121 °C"
  },
  {
    "chemical.smiles": "CCOC(=O)c1c(-c2ccc(F)cc2)cc(-c2cccc3c2OCO3)nc1C(C)C",
    "melting point": "148 to 150 °C"
  }
]

Field: next compound
Form field melting point, entry O=[N+]([O-])c1cccc(CN2CCOCC2)c1 : 48 to 50 °C

====

The reader will find reported melting point values listed item by item below.

Example entries and their recorded answers appear below.
[
  {
    "molecule": "CCOc1cc(CCCN2CCc3cc(OC)c(OC)cc3C2)ccc1NC(=O)c1cccc2c(=O)c3cccc(OC)c3[nH]c12",
    "melting point": "198 °C"
  },
  {
    "molecule": "Cc1cccc(/C=C/C(=O)Nc2cccc(NC(=N)c3ccccc3)c2)c1",
    "melting point": "179 to 180 °C"
  }
]

Form field melting point, entry CNC1CN(c2cc3c(cc2F)c(=O)c(C(=O)O)cn3C2CC2)C1 : 245 to 249 °C

Form field melting point, entry Cn1c(SCc2ccccc2)nc2c(c1=O)NCN2C(c1ccccc1)(c1ccccc1)c1ccccc1 : 255 to 258 °C

Form field melting point, entry CCON=C(CC)C1=C(O)CC(c2ccc(C(=O)OC)cc2)CC1=O (stereo not given) : 75 to 76 °C

====

metric.name: melting point

Form field melting point, entry COc1ccc(CC(=O)O)cc1C(=O)NCc1ccc(C(F)(F)F)cc1 : 167 to 168 °C

Form field melting point, entry COc1cc(C)c(C(=O)c2c(OC)ccc(C(F)(F)F)c2C)c(OC)c1OC : 95 to 96 °C

Form field melting point, entry CC(C)C[C@H]1C[C@]2(O)C[C@@H](OC2=O)[C@@H]1OC(=O)c1ccccc1 : 71 to 72 °C

Form field melting point, entry Cc1cccc2n[nH]c(=O)n12 : 182 to 183 °C

Form field melting point, entry CC(=O)Nc1ccc(C(=O)c2cc(-c3cccnc3)c(N3CCOCC3)s2)cc1 : 120 °C

====

metric.name: melting point

Example entries and their recorded answers appear below.
[
  {
    "compound": "CC(C)CCn1c(CN2C(=O)N(C3CC3)Cc3ccccc32)nc2cc(CN)ccc21",
    "melting point": "113 °C"
  },
  {
    "compound": "COC1OCC[C@@H]1NC(=O)[C@H](CC(C)C)NC(=O)Nc1cccc2ccccc12 (some centres undefined)",
    "melting point": "184 to 185 °C"
  },
  {
    "compound": "CC(C)(C)CC(=O)N1CCC(c2ccc(COc3ccc(S(C)(=O)=O)cc3)nc2)CC1",
    "melting point": "140 to 142 °C"
  }
]

Form field melting point, entry O=S(=O)(c1ccc(Nc2ccnc3cc(C(F)(F)F)ccc23)cc1)N1CCN(c2ccccn2)CC1 : 202 to 203 °C

====

The reader will find reported melting point values listed item by item below.

[
  {
    "compound": "CCNc1nc(N2CCN(Cc3ccccc3)CC2)ncc1C(=O)O",
    "melting point": "158 to 160 °C"
  },
  {
    "compound": "Cc1cc(F)ccc1-c1nc(N[C@H]2CC[C@H](O)CC2)nc2c1ccc(=O)n2-c1ccccc1F",
    "melting point": "148 to 151 °C"
  },
  {
    "compound": "CC(C)Oc1cc(Oc2ccc(S(C)(=O)=O)cn2)cc2cc(C3=NCC(CC(C)(C)O)S3)[nH]c12 (centres undefined)",
    "melting point": "151 to 153 °C"
  },
  {
    "compound": "CCC1c2cc(F)ccc2-c2cc(-c3ccccc3)ccc2N1S(=O)(=O)c1ccc(O)cc1 (centres undefined)",
    "melting point": "207 °C"
  },
  {
    "compound": "Cn1nnc2ccc(C(c3ccc(Cl)cc3)n3cncn3)cc21 (centres undefined)",
    "melting point": "130 to 135 °C"
  }
]

Field: next compound
Form field melting point, entry CCCCOc1cc(CCC(=O)O)n(Cc2ccc(Cl)cc2Cl)n1 : 123 to 124 °C

====

The reader will find reported melting point values listed item by item below.
Numeric answer only, unit °C assumed.

[
  {
    "chemical.smiles": "CCCC(=O)c1ccnc(Cl)c1NC(=O)c1ccccc1F",
    "units.of.measure": "°C",
    "melting point": 142
  }
]

Field: next molecule
Form field melting point, entry COC(=O)c1cnc2cccc(O)c2c1 : 200

====

The reader will find reported melting point values listed item by item below.

Example entries and their recorded answers appear below.
[
  {
    "compound": "CCC(C)(C)NC(Nc1cc(OC)cc(OC)c1)=C(C#N)S(=O)(=O)c1ccc(Cl)cc1",
    "melting point": "189 to 190 °C"
  },
  {
    "compound": "CC(CC(=O)O)CC(=O)NCCc1ccccc1 (stereo unspecified)",
    "melting point": "78 to 80 °C"
  },
  {
    "compound": "Cc1noc(NS(=O)(=O)c2ccsc2C(=O)Nc2ccc(C(C)(C)C)cc2)c1Br",
    "melting point": "76 to 86 °C"
  },
  {
    "compound": "CCc1nn(C2CCC2)c2cc(C(=O)O)ccc12",
    "melting point": "148 to 150 °C"
  },
  {
    "compound": "COC(=O)c1csc(C)c1N",
    "melting point": "78 °C"
  }
]

Form field melting point, entry C#CCOc1cc(Oc2cc(Cl)cc(Cl)c2)ncn1 : 136 °C

====

The reader will find reported melting point values listed item by item below.

Example entries and their recorded answers appear below.
[
  {
    "compound": "O=C(O)C1=Cc2cc(Cl)cc(-c3cccs3)c2OC1C(F)(F)F (stereo not given)",
    "result": "258 to 259 °C"
  },
  {
    "compound": "N#CCc1nc(C(=O)c2ccc(F)cc2)no1",
    "result": "78 to 80 °C"
  },
  {
    "compound": "COC(=O)CCc1cc2cc(Cl)ccc2n1S(=O)(=O)c1cccc(C)c1",
    "result": "105 to 108 °C"
  }
]

Form field melting point, entry Oc1cnc2cc(C(F)(F)F)ccc2n1 : 260 °C

Form field melting point, entry NC(=O)C1=CN(CCC(=O)NCCc2ccccc2)C=CC1 : 121 to 123 °C

Form field melting point, entry C=CCN1Cc2cnc(C)n2-c2ccc(Cl)cc2C1c1ccccc1F (stereo not given) : 140 to 145 °C
